// data source = PubChem BioAssay AID1963959

Attribute: pIC50
- Tested on: T-47D spheroids with HUVEC/MSC, viability
- protocolNotes: Anticancer human tumor T-47D cell line growth inhibition [PI3K];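 note: spheroids exposed to agents for seven days before reading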
- conditionSummary: curve of first compound; second compound 10 µM
When answering, recall that pIC50 equals minus log10 of the concentration in mol/L, and write that number alone.

molecule | testedOn | pIC50
CC1(C)CCC(Nc2ncc(C(F)(F)F)c(-c3c[nH]c4c(P(C)(C)=O)c(C#N)ccc34)n2)CN1 (stereo not given) + CC(Nc1ncnc2nc[nH]c12)c1cc2cccc(Cl)c2c(=O)n1-c1ccccc1 | T-47D spheroids with HUVEC/MSC, viability | 5.39

Continue with the molecule presented below.
INPUT: Given CCCS(=O)(=O)Nc1ccc(F)c(C(=O)c2c[nH]c3ncc(-c4ccc(Cl)cc4)cc23)c1F + CC(Nc1ncnc2nc[nH]c12)c1cc2cccc(Cl)c2c(=O)n1-c1ccccc1 , state its recorded pIC50.
OUTPUT: 5.02

----------
- Tested on: T-47D spheroids with HUVEC/MSC, viability
- protocolNotes: Anticancer human tumor T-47D cell line growth inhibition [PI3K];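 note: spheroids exposed to agents for seven days before reading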;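 for viability, T/C: percent of DMSO vehicle control luminescence so 100% = untreated growth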
- conditionSummary: second compound 0.0316 µM; first compound 10 µM; stronger effect = lower value
readoutLabel: viability, T/C (%)
Kindly provide the numeric value in % only, without the unit symbol.

Completed entries (count: 2):
compound | testedOn | viability, T/C, %
CC1(C)CCC(Nc2ncc(C(F)(F)F)c(-c3c[nH]c4c(P(C)(C)=O)c(C#N)ccc34)n2)CN1 (stereo not drawn) + CC(Nc1ccc2c(c1)OCCn1cc(N3C(=O)OCC3C(F)F)nc1-2)C(N)=O | T-47D spheroids with HUVEC/MSC, viability | 36.2
CNC(=O)c1ccc(N2C(=S)N(c3ccc(C#N)c(C(F)(F)F)c3)C(=O)C2(C)C)cc1F + CC(Nc1ccc2c(c1)OCCn1cc(N3C(=O)OCC3C(F)F)nc1-2)C(N)=O | T-47D spheroids with HUVEC/MSC, viability | 90.9

Next compound, please.
INPUT: For C#Cc1c(F)ccc2cc(O)cc(-c3ncc4c(N5CC6CCC(C5)N6)nc(OCC56CCCN5CC(F)C6)nc4c3F)c12 (stereo not drawn) + CC(Nc1ccc2c(c1)OCCn1cc(N3C(=O)OCC3C(F)F)nc1-2)C(N)=O , what is its reported viability, T/C?
OUTPUT: 89.1

----------
- Tested on: T-47D spheroids with HUVEC/MSC, viability
- protocolNotes: Anticancer human tumor T-47D cell line growth inhibition [PI3K];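 note: spheroids exposed to agents for seven days before reading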;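 for viability, T/C: percent of DMSO vehicle control luminescence so 100% = untreated growth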
- conditionSummary: second compound 0.1 µM; first compound 1 µM; stronger effect = lower value
readoutLabel: viability, T/C (%)
Give a bare numeral; the unit % is implied.

A selection of reference data follows.
molecule | unitString | viability, T/C
Cn1ncc(Cl)c1-c1cc(C(=O)NC(CN)Cc2cccc(F)c2)sc1Cl (stereo not given) + Cc1nc(NC(=O)N2CCCC2C(N)=O)sc1-c1ccnc(C(C)(C)C(F)(F)F)c1 | % | 60
CC1(C)CCC(CN2CCN(c3ccc(C(=O)NS(=O)(=O)c4ccc(NCC5CCOCC5)c([N+](=O)[O-])c4)c(Oc4cnc5[nH]ccc5c4)c3)CC2)=C(c2ccc(Cl)cc2)C1 + Cc1nc(NC(=O)N2CCCC2C(N)=O)sc1-c1ccnc(C(C)(C)C(F)(F)F)c1 | % | 89.6
Cn1ncc(Cl)c1-c1cc(C(=O)NC(CN)Cc2cccc(F)c2)sc1Cl (stereo not given) + COc1c(OCCCN2CCOCC2)ccc2c3n(c(=NC(=O)c4cnc(N)nc4)nc12)CCN3 | % | 39.2
CC1(C)CCC(Nc2ncc(C(F)(F)F)c(-c3c[nH]c4c(P(C)(C)=O)c(C#N)ccc34)n2)CN1 (stereo not given) + CC(Nc1ccc2c(c1)OCCn1cc(N3C(=O)OCC3C(F)F)nc1-2)C(N)=O | % | 47.3

INPUT: Form field: reported viability, T/C of C[C@@H](NC(=O)c1ncnc(N)c1Cl)c1ncc(C(=O)Nc2cc(C(F)(F)F)c(Cl)cn2)s1 + CC(Nc1ccc2c(c1)OCCn1cc(N3C(=O)OCC3C(F)F)nc1-2)C(N)=O
OUTPUT: 97.1
